Tested on: LOX IMVI melanoma
MEASUREMENT_NOTES: NCI tumour cell line growth inhibition, 48 h
TGI values by entry

Before answering, review these 2 worked examples.
{"COMPOUND": "CC(C)=CC(=O)CC(=O)C(=O)Nc1ccc(C)c(C)c1", "EXPERIMENTAL_RESULT": "> 100 µM"}
{"COMPOUND": "COc1c(OC(C)=O)ccc(/C=C2\\N=C(C)OC2=O)c1[N+](=O)[O-]", "EXPERIMENTAL_RESULT": "> 100 µM"}

Field TGI (entry `CC(C)Nc1[nH]c(C(=O)c2ccccc2)c(N)c1C(=S)Nc1ccccc1` ) reads 80.4 µM

Summary for this compound, `O=S(=O)(c1ccc(NC(=S)N/N=C/c2ccccc2O)cc1)N1CCCCC1` : TGI is 0.109 µM

Summary for this compound, `C=C(c1ccccc1N)[C@@]1(O)C[C@H](/C(=C\C)CO)C[C@@H]1NCc1ccccc1` : TGI is 31.6 µM

Please fill in: TGI reported for CC(Cc1ccc(Cl)cc1Cl)NO (stereo unspecified) = > 100 µM

# compound `CC(=O)Oc1c(C)n(CCCl)ccc1=O` ; its TGI = > 100 µM

TGI recorded for this compound, `CCN(CC)CCNC(=O)c1ccc([N+](=O)[O-])cc1OC` , is > 100 µM

Noted for `CCOC(=O)C1(Cc2ccccc2)Cc2cc3c(cc2C1)CCC3` : its TGI reads 43.9 µM

Short answer for `Cc1c(NC(=O)C(=O)N=NC(=O)c2ccncc2)c(O)c2ccccc2c1O` : TGI was 19.1 µM

Record summary for `C/C(=N\NC(=S)Nc1ccc(C(=O)O)cc1)c1ccccn1` : reported TGI = > 100 µM

The value of TGI measured for the compound N#Cc1cccc(C2ON=C(c3ccc([N+](=O)[O-])cc3)N2C23CC4CC(CC(C4)C2)C3)c1 (stereo unspecified) turned out to be > 100 µM

Form field TGI, entry CC(=O)OCC1OC(Nc2ccc3nc(C)n(-c4cccc(C)c4)c(=O)c3c2)C(OC(C)=O)C(OC(C)=O)C1OC(C)=O (stereo unspecified) : > 62.5 µM

Value of TGI reported for the compound `Cn1cc(-c2ccc(=O)n(Cc3cccc(-c4ncc(OCCN5CCOCC5)cn4)c3)n2)cn1` is > 100 µM

According to the records, this compound `O=C(CCCN1CCC2(CC1)C(=O)NC(=O)N2c1ccccc1)c1ccc(F)cc1` displays TGI of > 100 µM

Consider COC(=O)c1cnc(=O)n(C2CC(O)C(CO)O2)c1 (stereo unspecified) . Its measured TGI is > 100 µM

Measured TGI, `Cc1nc(-c2ccccc2)c(C)n2c1nc1ccccc12` : > 100 µM

GET /value?item= `ClC(=Nc1cccc2ccccc12)N(c1ccccc1)c1ccccc1` &field=TGI returns > 100 µM

Entry under test: CC(Cl)(/C=C/Cl)C(Cl)/C=C/C(Cl)(CCl)CBr (stereo unspecified) . Its TGI was 4.5 µM

Item: `COc1ccc2c(c1)c1nn(CCN(C)C)c3ccc4c(=O)n(CCN(C)C)c(=O)n2c4c13` | TGI: 0.469 µM

Value of measured TGI for the entry COC1C=C(Nc2cccc(Cl)c2)C(=O)C1 (stereo unspecified) : > 100 µM

Where do these numbers come from? They come from PubChem BioAssay (NCI).
